Below, each of the compounds is paired with its reported Ki value.
# studyTarget: MsCI4 (Magnetospirillum gryphiswaldense, UniProt A4TVL0, W36F/W59F)
# Sequence (A4TVL0 entry or part of it W36F/W59F): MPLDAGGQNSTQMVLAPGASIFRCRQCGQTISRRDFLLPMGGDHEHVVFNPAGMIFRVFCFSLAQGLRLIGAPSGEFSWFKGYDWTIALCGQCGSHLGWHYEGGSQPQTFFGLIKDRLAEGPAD
# testMethodNotes: biochemical
# Format: binding
# conditionLabel: Table S1, affinity for MsCI4, FRET assay; read-out: Ki

Some entries whose results are on file:
# compound, studyTarget, endpointResult
records = [
    ("O=C1CCN1", "MsCI4 (Magnetospirillum gryphiswaldense, UniProt A4TVL0, W36F/W59F)", "77 µM"),
    ("CC(N)=O [Acetamide]", "MsCI4 (Magnetospirillum gryphiswaldense, UniProt A4TVL0, W36F/W59F)", "> 1000 µM"),
    ("NC(=O)NC(=O)Cc1ccccc1", "MsCI4 (Magnetospirillum gryphiswaldense, UniProt A4TVL0, W36F/W59F)", "> 1000 µM"),
    ("C1CCNC1", "MsCI4 (Magnetospirillum gryphiswaldense, UniProt A4TVL0, W36F/W59F)", "> 1000 µM"),
]

Note to self: Ki recorded for O=C1CCCCCCN1 was > 1000 µM
